TARGET_OF_ASSAY: PDE6D (phosphodiesterase 6 delta), wild type, polyhistidine tag removed (UniProt O43924 1-150)
ASSAY_PROCEDURE: FP; average of 3 replicates
*: point of attachment. Farnesyl = CC(C)=CCC/C(C)=C/CC/C(C)=C/C*
OUTCOME_MEASURE: Kd (nM)
Expressed in nM, but write only the number.

Consider {FAM}-KKKKKKSKTKC(Farnesyl)-OMe [fluorescein-labeled KRAS HVR peptide, FAM-KKKKKKSKTKC(OMe)-Far] . Its measured Kd is 1400

The measurements presented in this section are drawn from paper PMC8842248.
